# study system: Human BCMA (human) (UniProt Q02223)
# procedure details: SPR, IgG immobilised, huBCMA analyte, 25 C

| binder | T½ [min] |
| --- | --- |
| L1.LGF/L3.NY/H3.AP (antibody, V domains shown) VH: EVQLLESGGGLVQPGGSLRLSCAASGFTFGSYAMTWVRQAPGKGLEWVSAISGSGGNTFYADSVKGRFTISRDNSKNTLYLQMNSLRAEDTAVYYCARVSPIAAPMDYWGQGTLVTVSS VL: EIVLTQSPGTLSLSPGERATLSCRASQSLGSFYLAWYQQKPGQAPRLLIYGASSRATGIPDRFSGSGSGTDFTLTISRLEPEDFAVYYCQHYNYPPSFTFGQGTKVEIK | 21.7 |
| L1.LGF/L3.KW/H3.AP (antibody, V domains shown) VH: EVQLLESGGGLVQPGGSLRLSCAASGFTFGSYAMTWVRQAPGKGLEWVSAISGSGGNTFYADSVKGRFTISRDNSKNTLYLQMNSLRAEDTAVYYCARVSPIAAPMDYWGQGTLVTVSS VL: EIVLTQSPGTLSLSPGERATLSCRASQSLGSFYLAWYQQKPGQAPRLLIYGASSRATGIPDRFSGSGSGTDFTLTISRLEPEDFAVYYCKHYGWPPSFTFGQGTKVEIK | 5.1 |
| L1.LGF/L3.PY/H3.AP (antibody, V domains shown) VH: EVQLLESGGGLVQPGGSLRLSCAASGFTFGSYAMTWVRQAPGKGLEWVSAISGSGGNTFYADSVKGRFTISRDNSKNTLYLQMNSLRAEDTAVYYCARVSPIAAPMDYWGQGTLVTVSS VL: EIVLTQSPGTLSLSPGERATLSCRASQSLGSFYLAWYQQKPGQAPRLLIYGASSRATGIPDRFSGSGSGTDFTLTISRLEPEDFAVYYCQHYPYPPSFTFGQGTKVEIK | 11.9 |
| L1.GDF/L3.KW/H3.AP (antibody, V domains shown) VH: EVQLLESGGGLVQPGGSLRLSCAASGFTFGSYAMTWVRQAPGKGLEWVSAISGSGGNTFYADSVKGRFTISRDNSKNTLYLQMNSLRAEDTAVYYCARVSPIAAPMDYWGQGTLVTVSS VL: EIVLTQSPGTLSLSPGERATLSCRASQSVGDFYLAWYQQKPGQAPRLLIYGASSRATGIPDRFSGSGSGTDFTLTISRLEPEDFAVYYCKHYGWPPSFTFGQGTKVEIK | 2.51 |
